Each recorded value in this set is attributed to PubChem BioAssay (NCI).

# System: NCI-H226 lung
# ASSAY_METHOD_TEXT: NCI-60 one-dose screen, 48 h (100 = growth as untreated, 0 = no growth, -100 = all killed)
# TEST_CONDITIONS: 10 µM unless noted
About 83,000 compounds went through this panel and 20% of them were active in at least one assay; those are over-represented in the sample as a whole. The source made the active and inactive calls. The calls were made as follows: active = growth percent below 10; inactive = the rest.
Kindly supply the reported growth values for the records listed here.

Please give measured growth of the following entry: `CN=C1C=CC(=C(c2ccc(N(C)C)cc2)c2ccc(N(C)C)cc2)C=C1` 6.94% (active)

Please give measured growth of the following entry: `CC(C)(C)Nc1c(-c2c3ccccc3cc3ccccc23)nc2ccccn12` 83.9% (inactive)

Please give measured growth of the following entry: `O=C1C2=C(CCN(Cc3ccccc3)C2)N2CCN=C2N1Cc1ccc(C(F)(F)F)cc1` 25.9% (inactive)

---

# System: SW-620 colon
# ASSAY_METHOD_TEXT: NCI-60 one-dose screen, 48 h (100 = growth as untreated, 0 = no growth, -100 = all killed)
# TEST_CONDITIONS: 10 µM unless noted
Compounds without any hit were thinned out: in the full panel of roughly 83,000, 20% have a hit.
Please use yes (1) for growth under 70% and no (0) for everything else, ties included.

Strictly below 70% in growth? `N#Cc1c(NC(=O)c2ccccc2I)sc2c1CCCC2` yes (1)

Strictly below 70% in growth? `COc1ccc(OC)c(/C=C2\COc3ccc(O)cc3C2=O)c1` yes (1)

Strictly below 70% in growth? CCOC(=O)C(O)C(O)(c1ccccc1)c1ccccc1 (configuration not stated) no (0)

Strictly below 70% in growth? `CC(C)c1ccc(C(=O)OC(=O)c2ccc(C(C)C)cc2)cc1` no (0)

Strictly below 70% in growth? `CC(C)(C)Nc1c(-c2c3ccccc3cc3ccccc23)nc2ccccn12` yes (1)

Strictly below 70% in growth? `COc1ccccc1NC(=O)Nc1ccc(-c2nc3ccccc3o2)cc1` no (0)

Strictly below 70% in growth? `CC(C)(O)c1cccc(F)c1` no (0)

Strictly below 70% in growth? `COc1ccc(/C=C2\COc3ccc(O)cc3C2=O)cc1OC` yes (1)

Strictly below 70% in growth? `CCCCCCCCc1cc[n+](CC(=O)c2ccc(Br)cc2)cc1` yes (1)

Strictly below 70% in growth? `CCOc1cc(N)ccc1C(=O)NCCCN(CC)CC` no (0)

Strictly below 70% in growth? `CCCCCCCCN(CCCCCCCC)C(=N)c1ccnc2ccccc12` yes (1)

Strictly below 70% in growth? `Cc1c(Cl)cccc1NS(=O)(=O)c1ccccc1` no (0)

---

# Test system: BT-549 breast
# ASSAY_METHOD_TEXT: NCI-60 one-dose screen, 48 h (100 = growth as untreated, 0 = no growth, -100 = all killed)
# TEST_CONDITIONS: 10 µM unless noted
Compounds without any hit were thinned out: in the full panel of roughly 83,000, 20% have a hit. Calls of active or inactive are those of the source. The calls were made as follows: active = growth percent below 10; inactive = the rest.
Kindly supply the reported growth values for the records listed here.

Write down measured growth (BT-549 breast) for this compound. `N=C(N)c1ccc(-c2ccc(-c3ccc(Cl)cc3Cl)o2)cc1` 94.7% (inactive)

Write down measured growth (BT-549 breast) for this compound. CCCCC1COc2cccc3c(SCC(=O)N(C)c4cccc(Cl)c4)cc[n+]1c23 (stereo not drawn) 107% (inactive)

Write down measured growth (BT-549 breast) for this compound. `CN1CCN(C(=O)[C@@]2(C)CC[C@]3(C)CC[C@]4(C)C(=CC[C@@H]5[C@@]6(C)C/C(=C/c7ccncc7)C(=O)C(C)(C)[C@@H]6CC[C@]54C)[C@@H]3C2)CC1` 55.6% (inactive)

Write down measured growth (BT-549 breast) for this compound. `COc1ccc(Oc2nc(Nc3ccc(N4CCOCC4)nc3)ncc2NC(=O)c2cc(OC)cc(OC)c2)cc1` 80.2% (inactive)

Write down measured growth (BT-549 breast) for this compound. COc1cc(C2CC(=O)Nc3n[nH]c(-c4ccccc4)c32)cc(OC)c1OC (stereo not drawn) 52.4% (inactive)

Write down measured growth (BT-549 breast) for this compound. `O=S(=O)(NCCNc1cc(-c2c(-c3cccc(O)c3)nc3sccn23)ccn1)c1ccc(Cl)cc1` 50.2% (inactive)

Write down measured growth (BT-549 breast) for this compound. `CCCCN1CCN(c2ccc3nc(-c4ccc5nc(-c6cc(OC)c(OC)c(OC)c6)[nH]c5c4)[nH]c3c2)CC1` 80.2% (inactive)

Write down measured growth (BT-549 breast) for this compound. `O=C(Oc1ccc[nH]c1=O)c1cc([N+](=O)[O-])cc([N+](=O)[O-])c1` 75.6% (inactive)
